# Tested on: HCC 2998
# protocol_details: NCI tumour cell line growth inhibition, 48 h
The source made the active and inactive calls. Rule as the data show it: active = GI50 up to about 1.1 µM and inactive = higher.
quantity_measured: GI50

Consider the following illustrative entries.
- compound: "COC1=CC2(C=CC1=O)CCNC1=C2C(=O)c2nc[nH]c2C1=O (stereo not given)"
  GI50: "> 100 µM (inactive)"
- compound: "CS(=O)(=O)C1S(=O)(=O)OCCOS1(=O)=O"
  GI50: "> 100 µM (inactive)"
- compound: "CC(C)=CC(=O)C/C(=N\\NC(N)=S)C(=O)Nc1ccc(Cl)cc1"
  GI50: "> 100 µM (inactive)"
- compound: "O=C(Cn1c(=O)oc2ccc(C(=O)c3cccc(Cl)c3)cc21)c1ccccc1"
  GI50: "20.1 µM (inactive)"
- compound: "CCCCn1c(-c2ccc([N+](=O)[O-])cc2)cs/c1=N/N=C1\\C(=O)Nc2ccc(Br)cc21"
  GI50: "17.9 µM (inactive)"
- compound: "O=C(OCc1ccccc1CN1CCOCC1)c1ccc(Br)cc1"
  GI50: "46.5 µM (inactive)"
- compound: "CN(C(=O)c1ccc(Cl)s1)C(=S)N(C)C(=O)c1ccc(Cl)s1"
  GI50: "> 10 µM (inactive)"
- compound: "CCOC(=O)c1c(-c2ccccc2)c(-c2ccccc2)cn1C"
  GI50: "> 10 µM (inactive)"
- compound: "CC(C(=O)O)c1ccc(-n2nnc3c(=O)[nH][nH]c(=O)c32)cc1 (stereo not given)"
  GI50: "> 100 µM (inactive)"

Ask | So what does the record say about GI50 for Cc1ccc(-n2c(=O)c3nn4c(=O)n(-c5ccc(C)cc5)c(=O)c4nn3c2=O)cc1 ?
Reply | > 100 µM (inactive)

// data source = ChEMBL document CHEMBL1201862
